Would you kindly list % remaining after a 60-min incubation, Rat for each of these compounds?
experiment: Hepatic microsomal stability, rat; details: […], 60-min incubation
Entry format: amount then unit.

Record excerpt, results attached:
Answer with reported % remaining after a 60-min incubation, Rat of c1ccc2cc(Nc3nc(-c4ccncc4)cs3)ncc2c1 [IND85]
32%

Answer with reported % remaining after a 60-min incubation, Rat of COc1ccc(-c2csc(Nc3ccc4ccccc4n3)n2)cc1OC [IND47]
50%

Answer with reported % remaining after a 60-min incubation, Rat of COc1ccc(-c2csc(Nc3cc4ccccc4cn3)n2)cc1OC [IND46]
61%

Answer with reported % remaining after a 60-min incubation, Rat of C(=N\Nc1ccc(-c2cnco2)cc1)/c1ccncc1 [Compound B, reference compound]
77%

Answer with reported % remaining after a 60-min incubation, Rat of Cc1ccnc(Nc2nc(-c3ccc(-c4ccccn4)s3)cs2)c1 [IND81]
48%

Field: % remaining after a 60-min incubation, Rat. Fill in for each record below.
1. COc1ccc(Nc2nc(-c3ccc(OC)c(OC)c3)cs2)nc1 [IND44]
2. Cc1cccc(Nc2nc(-c3cc4ccccc4o3)cs2)n1 [IND22]
3. Cc1ccc(Nc2nc(-c3cc(-c4ccccc4)no3)cs2)nc1 [IND33]

["39%", "64%", "73%"]

* * *

experiment: in vitro; details: dog, MDCK-MDR1
readout.label: Papp A→B (×10⁻⁶ cm/s)
Give bare numbers, in ×10⁻⁶ cm/s.

Record excerpt, results attached:
Answer with reported Papp A→B of Cc1ccc(Nc2nc(-c3cc(-c4ccccc4)no3)cs2)nc1 [IND33]
6.8

Answer with reported Papp A→B of c1ccc2cc(Nc3nc(-c4ccncc4)cs3)ncc2c1 [IND85]
3.03

Answer with reported Papp A→B of Cc1cccc(Nc2nc(-c3cc4ccccc4o3)cs2)n1 [IND22]
9.5

API: the following record is the query input.
Answer with reported Papp A→B of Cc1ccnc(Nc2nc(-c3ccncc3)cs2)c1 [IND52]
36.2

* * *

test: Hepatic microsomal stability, rat; conditions: […]
readout.label: Microsome stability T1/2 (min)
Answers are plain numbers, in min.

Record excerpt, results attached:
Answer with reported Microsome stability T1/2 of COc1ccc(Nc2nc(-c3ccc(OC)c(OC)c3)cs2)nc1
45

Answer with reported Microsome stability T1/2 of Cc1ccc(Nc2nc(-c3ccncc3)cs2)nc1
20

API: the following record is the query input.
Answer with reported Microsome stability T1/2 of Cc1ccc(Nc2nc(-c3c(-c4ccccc4)noc3C)cs2)nc1
19

* * *

experiment: Hepatic microsomal stability, human; details: human, human liver microsomes, pH 7.4
readout.label: half-life at 1 μM

Answer with reported half-life at 1 μM of Cc1cccc(Nc2nc(-c3cc4ccccc4o3)cs2)n1
> 1 h

Answer with reported half-life at 1 μM of Cc1cccc(Nc2nc(-c3ccc(-c4ccccc4)cc3)cs2)n1
> 1 h

API: the following record is the query input.
Answer with reported half-life at 1 μM of COc1ccc(-c2csc(Nc3cc4ccccc4cn3)n2)cc1OC
> 1 h

* * *

test system: PrP^Sc in dividing ScN2a-cl3 cells; assay type: cell-based, mouse; conditions: AMT analogs tested for potency
EC50 strictly less than 1 µM = YES. Otherwise NO.

Previously resolved entries follow.
Does Cc1ccc(Nc2nc(-c3ccc(OC(F)(F)F)cc3)cs2)nc1 [IND26] have EC50 strictly under 1 µM?
NO

Does COc1ccc(-c2csc(Nc3ccc4ccccc4n3)n2)cc1OC [IND47] have EC50 strictly under 1 µM?
YES

Does c1ccc2cc(Nc3nc(-c4cc5ccccc5o4)cs3)ncc2c1 [IND91] have EC50 strictly under 1 µM?
YES

Does COc1ccc(-c2csc(Nc3cnccn3)n2)cc1OC [IND82] have EC50 strictly under 1 µM?
NO

Does COc1ccc(-c2csc(Nc3cc4ccccc4cn3)n2)cc1 [IND86] have EC50 strictly under 1 µM?
YES

More entries:
Does Cc1ccnc(Nc2nc(-c3cc(-c4ccc(Cl)cc4)no3)cs2)c1 [IND64] have EC50 strictly under 1 µM?
YES

Does Cc1ccc(Nc2nc(-c3cc(-c4ccccc4)no3)cs2)nc1 [IND33] have EC50 strictly under 1 µM?
YES

Does Cc1ccnc(Nc2nc(-c3ccc(O)cc3)cs2)c1 [IND49] have EC50 strictly under 1 µM?
NO

Does c1ccc2cc(Nc3nc(-c4ccncc4)cs3)ncc2c1 [IND85] have EC50 strictly under 1 µM?
YES

Does COc1ccc(Nc2nc(-c3cc4ccccc4o3)cs2)nc1 [IND121] have EC50 strictly under 1 µM?
NO

Does Cc1ccc(Nc2nc(-c3ccc(-c4ccccn4)s3)cs2)nc1 [IND76] have EC50 strictly under 1 µM?
NO

Does Cc1ccc(Nc2nc(-c3ccncc3)cs2)nc1 [IND29] have EC50 strictly under 1 µM?
NO

Does COc1ccc(-c2csc(Nc3ccc(C(F)(F)F)cn3)n2)cc1OC [IND43] have EC50 strictly under 1 µM?
NO

Does Cc1cccc(Nc2nc(-c3ccc(-c4ccccc4)cc3)cs2)n1 [IND24] have EC50 strictly under 1 µM?
NO

Does COc1ccnc(Nc2nc(-c3ccncc3)cs2)c1 [IND111] have EC50 strictly under 1 µM?
YES

Does Cc1cccc(Nc2nc(-c3cc4ccccc4o3)cs2)n1 [IND22] have EC50 strictly under 1 µM?
NO

Does COc1ccc(Nc2nc(-c3ccncc3)cs2)nc1 [IND119] have EC50 strictly under 1 µM?
NO

Does COc1ccc(-c2csc(Nc3ccccn3)n2)cc1OC [IND135] have EC50 strictly under 1 µM?
NO

Does COc1ccnc(Nc2nc(-c3cc(-c4ccccc4)no3)cs2)c1 [IND112] have EC50 strictly under 1 µM?
YES

* * *

tested on: MDCK-MDR1 cells; assay: Permeability in MDCK-MDR1 cells; settings: MDR1-MDCK cell monolayers, apical to basal
Would you kindly list Permeability PA→B for each of these molecules?

Record excerpt, results attached:
Output reported Permeability PA→B of the molecule COc1ccc(-c2csc(Nc3ccc4ccccc4n3)n2)cc1OC on MDCK-MDR1 cells.
9.2 10^−6 cm/sec

Output reported Permeability PA→B of the molecule COc1ccc(-c2csc(Nc3ccc(C(F)(F)F)cn3)n2)cc1OC on MDCK-MDR1 cells.
9.4 10^−6 cm/sec

API: the following record is the query input.
Output reported Permeability PA→B of the molecule Cc1ccc(Nc2nc(-c3ccncc3)cs2)nc1 on MDCK-MDR1 cells.
32.6 10^−6 cm/sec

* * *

readout.label: melting point

Record excerpt, results attached:
Answer with reported melting point of FC(F)(F)Oc1ccc(-c2csc(Nc3cc4ccccc4cn3)n2)cc1
269 to 271 °C

Answer with reported melting point of COc1ccc(-c2csc(Nc3ccc(C)cn3)n2)cc1
246 to 248 °C

Answer with reported melting point of COc1ccc(-c2csc(N(C(C)=O)c3cc4ccccc4cn3)n2)cc1OC
164 to 165 °C

Field: melting point. Fill in for each record below.
1. c1ccc(-c2csc(Nc3cc4ccccc4cn3)n2)cc1
2. COc1ccc(-c2csc(C(=O)Nc3cc4ccccc4cn3)n2)cc1OC
3. COc1ccc(Nc2nc(-c3cc(-c4ccccc4)no3)cs2)nc1
4. COc1ccc(-c2csc(Nc3cnccn3)n2)cc1OC
5. COc1ccccc1-c1csc(Nc2ccc(C)cn2)n1
6. CNc1nc(-c2ccc(OC)c(OC)c2)cs1

1: 265 to 267 °C; 2: 196 to 202 °C; 3: 203 to 205 °C; 4: 205 to 207 °C; 5: 228 to 230 °C; 6: 120 to 123 °C

Field: melting point. Fill in for each record below.
1. COc1ccnc(Nc2nc(-c3ccncc3)cs2)c1
2. c1ccc(-c2cc(-c3csc(Nc4ccncc4)n3)on2)cc1
3. COc1ccc(Nc2nc(-c3cc4ccccc4o3)cs2)nc1
4. COc1ccc(-c2csc(Nc3cccc4ccccc34)n2)cc1OC
5. COc1ccc(Nc2nc(-c3ccc(-c4ccccc4)cc3)cs2)nc1
6. Cc1ccc(Nc2nc(-c3ccc(-c4ccccn4)s3)cs2)nc1

1: 190 to 192 °C; 2: 269 to 270 °C; 3: 185 to 186 °C; 4: 244 to 246 °C; 5: 212 to 213 °C; 6: 197 to 199 °C

Field: melting point. Fill in for each record below.
1. COc1ccc(-c2csc(N(C)c3cc4ccccc4cn3)n2)cc1OC
2. COc1ccc(-c2csc(Nc3ccccn3)n2)cc1OC
3. COc1ccc(-c2csc(Nc3cccnc3)n2)cc1OC
4. COc1ccc(NC(=O)c2csc(Nc3ccc(C)cn3)n2)cc1OC
5. COc1ccc(-c2csc(Nc3ncccn3)n2)cc1OC

["165 to 166 °C", "211 to 214 °C", "251 to 254 °C", "212 to 214 °C", "225 to 228 °C"]

Field: melting point. Fill in for each record below.
1. COc1ccc(-c2csc(Nc3ccccc3)n2)cc1OC
2. Cc1ccc(Nc2nc(-c3ccc(OC(F)(F)F)cc3)cs2)nc1
3. COc1ccc(-c2csc(Nc3cc4ccccc4cn3)n2)cc1

1: 170 to 174 °C; 2: 205 to 207 °C; 3: 224 to 228 °C

Field: melting point. Fill in for each record below.
1. Cc1ccnc(Nc2nc(-c3ccccc3O)cs2)c1
2. Cc1ccc(Nc2nc(C)cs2)nc1
3. Cc1ccc(Nc2nc(-c3c(-c4ccccc4)noc3C)cs2)nc1
4. Cc1csc(Nc2cc3ccccc3cn2)n1
5. Cc1ccnc(Nc2nc(-c3ccc4c(c3)OCCO4)cs2)c1

["249 to 250 °C", "212 to 214 °C", "267 to 269 °C", "212 to 215 °C", "230 to 240 °C"]

Field: melting point. Fill in for each record below.
1. COc1ccc(-c2csc(Nc3ncccc3C)n2)cc1OC
2. Cc1ccc(Nc2nc(-c3ccccn3)cs2)nc1

264 to 266 °C
184 to 190 °C

Just for reference, patent US20140329863A1 is where these values come from.
